Tested on: UACC-257 melanoma
Assay: NCI-60 one-dose screen, 48 h
Conditions: 10 µM unless noted
This is part of a sample that, as a whole, favours compounds with a hit. Of some 83,000 tested, about 20% had one in any assay. Calls of active or inactive are those of the source. How the source made its calls: active means growth percent below 10; inactive means the rest.
// one of active, inactive, no free text

Cc1nc2c(c(=O)[nH]1)C(c1ccccc1)c1ccc3ccccc3c1O2 (stereo not given); inactive
CC(=C(c1ccc(OCCN2CCCCC2)cc1)c1ccc(OCCN2CCCCC2)cc1)c1ccc(Cl)cc1; active

Exam item: Outcome logged for `Cc1ncc(C(=O)Nc2ccc(CN3CCN(C)CC3)c(C(F)(F)F)c2)cc1C#Cc1cnc(N)c2ncccc12` in this assay:
Marked response: inactive

Exam item: Outcome logged for `Cc1cccc(Oc2ccc(Nc3ncnc4ccc(NC(=O)CN5CCN(C)CC5)cc34)cc2Cl)c1` in this assay:
Marked response: active

Exam item: Outcome logged for `CC(=O)/C(=C/c1ccc([N+](=O)[O-])cc1)C(=O)c1ccccc1` in this assay:
Marked response: inactive

Exam item: Outcome logged for `CC(=O)c1ccc(Nc2nccc(-c3ccc4ccccc4c3)n2)cc1` in this assay:
Marked response: inactive

Exam item: Outcome logged for `COc1ccc2c(c1)/C(=N/c1n[nH]c(=S)s1)C(=O)N2` in this assay:
Marked response: inactive

Exam item: Outcome logged for `C=C(c1ccc(OC)c(/C=C/C(=O)c2ccc3c(c2)OCO3)c1)c1cc(OC)c(OC)c(OC)c1` in this assay:
Marked response: inactive

Exam item: Outcome logged for `CN(C)CCN1C(=O)c2cccc3c(/C=C/CN4C(=O)c5cccc6cccc(c56)C4=O)ccc(c23)C1=O` in this assay:
Marked response: inactive

Exam item: Outcome logged for `Cc1ccc2c(-c3nnc(N)s3)cc(=O)oc2c1C` in this assay:
Marked response: inactive

Exam item: Outcome logged for `N#Cc1cncc(-c2ccc3ncnc(Nc4cccc(Cl)c4)c3c2)c1` in this assay:
Marked response: inactive

Exam item: Outcome logged for N=c1c(S(=O)(=O)c2ccccc2)cc2c(=O)n3ccccc3nc2n1CC1CCCO1 (stereo not given) in this assay:
Marked response: inactive

Exam item: Outcome logged for `O=S(=O)(NCCNc1nccc(-c2c(-c3cccc(O)c3)nc3occn23)n1)c1ccc(Br)cc1` in this assay:
Marked response: inactive

Exam item: Outcome logged for `O=C1/C(=C/c2ccc(F)cc2)CN(C(=O)C(Cl)Cl)C/C1=C\c1ccc(F)cc1` in this assay:
Marked response: active

Exam item: Outcome logged for `COc1ccc2c(c1)c(-c1nc(-c3c[nH]c4ncccc34)cs1)cn2CCCN1CCOCC1` in this assay:
Marked response: inactive

Exam item: Outcome logged for `Fc1ccc2[nH]cc(-c3nc(-c4c[nH]c5ccncc45)cs3)c2c1` in this assay:
Marked response: active

Exam item: Outcome logged for CC(C)=CCNc1ncnc2c1ncn2C1OC(CO)C(O)C1O (stereo not given) in this assay:
Marked response: inactive

Exam item: Outcome logged for `N#C/C(=C\c1ccc(-c2cccc(C(F)(F)F)c2)o1)c1ccccc1` in this assay:
Marked response: inactive

Exam item: Outcome logged for `CCOC(=O)c1cnc2c(N=Nc3ccc(OC)cc3)c(N)nn2c1N` in this assay:
Marked response: inactive

Exam item: Outcome logged for `CC1=C2[C@@H](CC1)[C@]1(C)O[C@@](c3ccccc3)(C[C@H]1OC(=O)CO)[C@H]2OC(=O)/C=C/c1ccccc1` in this assay:
Marked response: inactive
